test system: Huh7.5 cells; assay: Alamar Blue cell viability assay; type: cell-based, human; details: 10 μM
observation_type: Cell Viability (%), alamar blue
Include the unit right after the number.

Would you please look over these solved cases?
# compound, Cell Viability (%), alamar blue
rows = [
    ("COC(=O)c1cccc(NC(=O)c2nc(Cl)c(N(C)CC(C)C)nc2N)c1.O=C(O)C(F)(F)F", "93%"),
    ("Cc1ccncc1NC(=O)c1cnc(N(C)CC(C)C)cn1 [ID 414, 2,2,2-trifluoroacetate]", "90%"),
    ("Cc1cc(Cl)ncc1NC(=O)c1nc(Cl)c(N(C)CC(C)C)nc1N [ID 293, bis(2,2,2-trifluoroacetate)]", "66%"),
    ("CC(C)CN(C)c1nc(N)c(C(=O)Nc2nncs2)nc1Cl.Cl", "67%"),
]

Query: What value of Cell Viability (%), alamar blue has been reported for the following compound? Cc1ccncc1NC(=O)c1nc(Cl)c(N2CCOCC2)nc1N [ID 419, 2,2,2-trifluoroacetate]
Response: 77%

Query: Moving on to the next compound: CC(C)CN(C)c1nc(N)c(C(=O)NC2CCCCC2)nc1Cl.O=C(O)C(F)(F)F
Response: 48%

Query: Moving on to the next compound: Cc1ccncc1NC(=O)c1nc(Cl)c(N(C)CC(C)C)nc1N.Cl
Response: 68%

Query: Moving on to the next compound: CC(C)CN(C)c1nc(N)c(C(=O)NCc2cccnc2)nc1Cl.O=C(O)C(F)(F)F
Response: 65%

Values from patent US20110217265A1
